Measured values drawn from the antibiotic and cytotoxicity screens of Wong et al. (2023) for this set.

System: HepG2
assay-notes: cytotoxicity call (relative viability < 0.9)
experimental-parameters: 10 µM
Screen size: about 39,000 compounds; about 3,300 (8.5%) were called active. The entries come from a sample that favours actives as a whole.
// allowed return values: TRUE = active, FALSE = inactive

QUERY: Recorded test call requested for Cc1ccc(Oc2nnc(-c3cccs3)c3ccccc23)cc1
RESULT: FALSE

QUERY: Could you kindly confirm the outcome this assay logged for C=CCOC(=O)[C@@H]1[C@H]2C(=O)O[C@H](c3ccccc3)[C@H](c3ccccc3)N2[C@H](c2ccc(OCCOC(=O)[C@@H]3C[C@@H]4C(=O)N[C@@H](CCCCNC(C)=O)C(=O)N4[C@@H]3c3ccc(O)cc3)cc2)[C@@]12C(=O)Nc1ccccc12 ?
RESULT: FALSE

QUERY: Given C[C@@H]1CCCCO[C@H](CN(C)Cc2ccc(C(=O)O)cc2)[C@@H](C)CN([C@@H](C)CO)C(=O)c2cc(NC(=O)Nc3ccccc3)ccc2O1 , state the outcome it received in this test.
RESULT: FALSE

QUERY: Please share the test call associated with COc1ccc(CN(C)C[C@H]2OCCCC[C@@H](C)Oc3ccc(NC(=O)NC4CCCCC4)cc3C(=O)N([C@@H](C)CO)C[C@@H]2C)cc1 .
RESULT: FALSE

QUERY: Any idea what this test logged for COc1ccc(NC(=O)Nc2ccc3c(c2)C(=O)N([C@H](C)CO)C[C@@H](C)[C@@H](CN(C)C(=O)Nc2cccc4ccccc24)O3)cc1 ?
RESULT: FALSE

QUERY: I would be grateful if you could indicate the recorded call for C[C@H]1CCCCO[C@H](CN(C)Cc2ccc(C(=O)O)cc2)[C@@H](C)CN([C@@H](C)CO)C(=O)c2cc(NC(=O)Cc3ccccc3)ccc2O1 .
RESULT: FALSE

QUERY: # fetch the recorded call for COc1ccc(CN(C)C[C@H]2OCCCC[C@H](C)Oc3ccc(NC(=O)NC4CCCCC4)cc3C(=O)N([C@@H](C)CO)C[C@H]2C)cc1 here
RESULT: TRUE

QUERY: Tell me the assay call for COc1ccc(CN(C)C[C@H]2OCCCC[C@@H](C)Oc3ccc(NC(=O)NC4CCCCC4)cc3C(=O)N([C@H](C)CO)C[C@H]2C)cc1 please.
RESULT: TRUE

QUERY: Hi, do you know how COc1ccc(S(=O)(=O)N(C)C[C@@H]2Oc3cc(Br)ccc3S(=O)(=O)N([C@H](C)CO)C[C@@H]2C)cc1 came out in this test?
RESULT: FALSE

QUERY: For COc1ccc(CN(C)C[C@@H]2OCCCC[C@H](C)Oc3ccc(NC(=O)NC4CCCCC4)cc3C(=O)N([C@@H](C)CO)C[C@@H]2C)cc1 , what call appears in the results of this test?
RESULT: TRUE

QUERY: Status in this test for C[C@@H]1CN([C@H](C)CO)C(=O)c2cc(NC(=O)Nc3ccc(C(F)(F)F)cc3)ccc2O[C@H]1CN(C)C(=O)Nc1cccc2ccccc12 ?
RESULT: TRUE

QUERY: Outcome? Cc1csc(-c2nnc(Nc3ccc(Oc4ncccc4-c4ccnc(N)n4)cc3)c3ccccc23)c1
RESULT: TRUE

QUERY: # lookup: test call for COc1ccc(CN(C)C[C@@H]2OCCCC[C@@H](C)Oc3ccc(NC(=O)NC4CCCCC4)cc3C(=O)N([C@H](C)CO)C[C@H]2C)cc1
RESULT: FALSE
